TARGET: T1, FZD5 CRD (Homo sapiens, UniProt Q13467)
T1 construct: K29-T156; GPI anchor signal (C); expressed in transfected cells; host or cells: CHO cells, lentiviral pLenti-puro
T1 sequence (Q13467 29-156): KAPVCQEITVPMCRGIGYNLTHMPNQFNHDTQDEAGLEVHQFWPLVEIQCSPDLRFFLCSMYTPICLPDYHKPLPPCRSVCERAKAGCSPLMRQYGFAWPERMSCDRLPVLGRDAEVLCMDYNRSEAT
TEST: Immunofluorescence of anti-FZD5 Fab binding to CHO cells overexpressing Frizzled CRD
Design: key: −: no binding; +: very weak binder; ++: weak binder; +++: good binder; ++++: very good binder
PARAMETER_MEASURED: Immunofluorescence binding, Frizzled CRD overexpressed on CHO cells: FZD5

[
  {
    "MOLECULE": "Fab-2923: anti-FZD5 Fab with antibody variable region Fv-2923; CDR SEQ ID NOs: 35, 36, 62, 100, 138, 162 (antibody, V domains shown) VH: EVQLVESGGGLVQPGGSLRLSCAASGFNLYYYYMHWVRQAPGKGLEWVASIYSSSGSTSYADSVKGRFTISADTSKNTAYLQMNSLRAEDTAVYYCARGAMDYWGQGTLVTVSS VL: DIQMTQSPSSLSASVGDRVTITCRASQSVSSAVAWYQQKPGKAPKLLIYSASSLYSGVPSRFSGSRSGTDFTLTISSLQPEDFATYYCQQWYGYSALITFGQGTKVEIK",
    "RESULT": "++++"
  }
]
